Entry source: PubChem BioAssay AID1159580

assay: chemical genetic growth profiling, strain panel (AID 1159580);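 also: tested at 20 µM; growth read once vehicle control cultures reached saturation at 30 °C; 1 = growth at the plate median or of vehicle wells; lower values mean less growth of the strain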; conditions: S. cerevisiae deletion strains, growth OD, locus YPL106C, strain sse1, stronger effect = lower value
About 2,000 (36%) of roughly 5,500 compounds were called active. Roughly 18% stayed inconclusive and do not appear here. Some of the results follow.
recordedMetric: normalized growth
Output spec: single numeric token, no unit.

Query :: Bench note: what normalized growth did CC(=O)Oc1c(-c2ccccc2)oc2c(CC=C(C)C)c3c(c(OC(C)=O)c2c1=O)C=CC(C)(C)O3 show?
Result :: 1.02

Query :: And what about the molecule COc1ccc(-c2cc(=O)c3c(OC)c(OC)c(OC)c(OC)c3o2)cc1 ?
Result :: 0.927

Query :: And what about the molecule COc1ccc(-c2cc(=O)c3ccccc3o2)cc1 ?
Result :: 1.05

Query :: And what about the molecule [N-]=[N+]=CC(=O)OCC(N)C(=O)O (configuration not stated) ?
Result :: 0.966

Query :: And what about the molecule COC(=O)C1=C(C)NC(C)=C(C(=O)OC)C1c1ccccc1[N+](=O)[O-] ?
Result :: 0.932

Query :: And what about the molecule C[C@@H]1CC[C@@]2(OC1)OC1C(O)C3C4CC[C@H]5C[C@H](O[C@@H]6O[C@H](CO)[C@H](O[C@@H]7O[C@H](CO)[C@@H](O)[C@H](O[C@@H]8OC[C@@H](O)[C@H](O)[C@H]8O)[C@H]7O[C@@H]7O[C@H](CO)[C@H](O)[C@H](O[C@@H]8O[C@H](CO)[C@@H](O)[C@H](O)[C@H]8O)[C@H]7O)[C@H](O)[C@H]6O)[C@H](O)C[C@]5(C)C4CC[C@]3(C)C1[C@@H]2C (some centres not stated) ?
Result :: 0.671

Query :: And what about the molecule CC(=O)O[C@H]1C[C@@]2(C)[C@H](c3ccoc3)OC(=O)[C@H]3O[C@]32[C@@]2(C)C1[C@]1(C)C(C[C@H]2OC(C)=O)C(C)(C)[C@H](OC(C)=O)C[C@@H]1OC(C)=O (some centres not stated) ?
Result :: 1.03

Query :: And what about the molecule Cc1cc2cc3c(C)cc(=O)oc3c(C)c2o1 ?
Result :: 0.92

Query :: And what about the molecule COCCOC(=O)C1=C(C)NC(C)=C(C(=O)OC(C)C)C1c1cccc([N+](=O)[O-])c1 (configuration not stated) ?
Result :: 1.08

Query :: And what about the molecule COc1ccc(-c2cc(=O)c3c(O)c(OC)c(OC)c(OC)c3o2)cc1 ?
Result :: 0.981

Query :: And what about the molecule CC(C)(C)C(=O)C(Oc1ccc(Cl)cc1)n1cncn1 (configuration not stated) ?
Result :: 0.156

Query :: And what about the molecule Nc1nc(N)c2nc(-c3ccccc3)c(N)nc2n1 ?
Result :: 0.995

Query :: And what about the molecule O=C(/C=C/c1ccccc1)c1ccc(O)cc1 ?
Result :: 0.503

Query :: And what about the molecule O=C1CN2Cc3c(ccc(Cl)c3Cl)N=C2N1 ?
Result :: 0.958

Query :: And what about the molecule CC(C)Oc1ccc2c(=O)cc(-c3ccccc3)oc2c1 ?
Result :: 0.928

Query :: And what about the molecule ClC(Cl)=C(c1ccc(Cl)cc1)c1ccc(Cl)cc1 ?
Result :: 0.991

Query :: And what about the molecule COc1cc([C@@H]2c3cc4c(cc3[C@H](O)[C@H]3COC(=O)[C@@H]23)OCO4)cc(OC)c1OC ?
Result :: 1

Query :: And what about the molecule COC(=O)C1=C(C)NC(C)=C(C(=O)OCC(C)C)C1c1ccccc1[N+](=O)[O-] (configuration not stated) ?
Result :: 0.299

Query :: And what about the molecule O=C(O)c1nc2cc(Cl)c(Cl)cc2[nH]c1=O ?
Result :: 1.02

Query :: And what about the molecule CC(=O)O[C@H]1C[C@@H](O)C(C)(C)C2C[C@@H](OC(C)=O)[C@]3(C)C(CC[C@@]4(C)[C@H](c5ccoc5)OC(=O)C5OC543)[C@]21C (some centres not stated) ?
Result :: 1.02

Query :: And what about the molecule C=CCc1ccccc1OCC(O)CNC(C)C (configuration not stated) ?
Result :: 0.987

Query :: And what about the molecule O=c1c(-c2ccc(O)cc2)coc2cc(O)cc(O)c12 ?
Result :: 1.02

Query :: And what about the molecule O=c1c(-c2ccccc2)coc2cc(O)cc(O)c12 ?
Result :: 1.03

Query :: And what about the molecule CC(=O)O[C@@H]1CC2C(C)(C)CCC(=O)[C@]2(C)C2CC[C@@]3(C)[C@H](c4ccoc4)OC(=O)C4OC43[C@@]21C (some centres not stated) ?
Result :: 0.996

Query :: And what about the molecule CC(=O)O[C@@H]1CC2C(C)(C)C(=O)CC[C@]2(C)C2CC[C@@]3(C)[C@H](c4ccoc4)OC(=O)C4OC43[C@@]21C (some centres not stated) ?
Result :: 1.01

Query :: And what about the molecule N[C@@H]1CONC1=O ?
Result :: 0.953

Query :: And what about the molecule CC1(C)O[C@@H]2CC3C4CCC5=CC(=O)C=C[C@]5(C)[C@@]4(F)[C@@H](O)C[C@]3(C)[C@]2(C(=O)CO)O1 (some centres not stated) ?
Result :: 0.923

Query :: And what about the molecule COc1ccc(-c2coc3cc(OC(C)=O)cc(OC(C)=O)c3c2=O)cc1 ?
Result :: 0.913

Query :: And what about the molecule CC1(C)O[C@@H]2CC3C4C[C@H](F)C5=CC(=O)C=C[C@]5(C)[C@@]4(F)[C@@H](O)C[C@]3(C)[C@]2(C(=O)CO)O1 (some centres not stated) ?
Result :: 1.01

Query :: And what about the molecule C/C(=C\C(=O)OCCCCCCCCC(=O)O)C[C@@H]1OC[C@H](C[C@@H]2O[C@H]2[C@@H](C)[C@H](C)O)[C@@H](O)[C@H]1O ?
Result :: 0.906

Query :: And what about the molecule COc1ccc(C(=O)/C=C/c2ccccc2)cc1 ?
Result :: 0.76

Query :: And what about the molecule COC(=O)C1=C(C)NC(C)=C(C(=O)OCCN(C)Cc2ccccc2)C1c1cccc([N+](=O)[O-])c1 (configuration not stated) ?
Result :: 0.887

Query :: And what about the molecule C=C1C2CC[C@@]3(C)[C@H](c4ccoc4)OC(=O)C[C@]13O[C@H]1CC(=O)C(C)(C)[C@H](C(O)C(=O)OC)[C@@]21C (some centres not stated) ?
Result :: 1.05

Query :: And what about the molecule CC1=C2C(=CO[C@H](C)[C@H]2C)C(=O)C(C(=O)O)=C1O ?
Result :: 0.933

Query :: And what about the molecule O=c1[nH]c2cc(Cl)c(Cl)cc2[nH]c1=O ?
Result :: 0.97

Query :: And what about the molecule CC1(C)O[C@@H]2CC3C4C[C@H](F)C5=CC(=O)C=CC5(C)C4C(O)CC3(C)[C@]2(C(=O)CO)O1 (some centres not stated) ?
Result :: 0.95

Query :: And what about the molecule NC(=O)CC[C@@H](N)C(=O)O ?
Result :: 1.01
